studyTarget: VEGF-A (Homo sapiens)
Sequence (P15692 27-191 isoform P15692-4): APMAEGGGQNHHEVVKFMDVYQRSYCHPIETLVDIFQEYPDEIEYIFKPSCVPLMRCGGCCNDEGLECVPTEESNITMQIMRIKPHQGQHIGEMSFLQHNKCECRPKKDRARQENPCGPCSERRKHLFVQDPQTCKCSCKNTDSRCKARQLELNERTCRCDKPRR
experiment: VEGF-A induced sprouting of HUVEC, spheroid-based cellular angiogenesis assay
experimentalSetup: VEGF-A 25 ng/mL preincubated with compound, 24 h, read-out: VEGF-A1 IC50
Source text: Aim of this in vitro method is to assess compounds effects on FGF-2, FGF-1, or VEGF-A induced sprouting of human umbilical vein endothelial cells (HUVEC) in the spheroid-based cellular angiogenesis assay. […] IC50 values determined for the tested compounds are expressed in microM [μM] and the values for the inhibition of FGF-1, FGF2 and VEGF-A induced growth (sprouting) are listed after each compound in the examples after chemical characterization. […]
pIC50: −log10 of the molar value.
valueKind: pIC50

Consider the reported pIC50 for these compounds:
compound: O=C(O)c1cc(O)c(CN(Cc2cc(O)c(C(=O)O)cc2O)Cc2cc(O)c(C(=O)O)cc2O)cc1O [IIIc-061a]
studyTarget: VEGF-A (Homo sapiens)
pIC50: 4.68
--
compound: CCOC(=O)Cc1cc(O)c(C(=O)Nc2ccccc2C(=O)OC)cc1O [IIIa-001a-E2]
studyTarget: VEGF-A (Homo sapiens)
pIC50: 4.37

a: CC(=O)N(Cc1cc(O)c(C(=O)O)cc1O)Cc1cc(O)c(C(=O)O)cc1O [IIIc-057a]
b: O=C(O)Cc1ccccc1NC(=O)c1cc(O)cc(C(=O)O)c1O [IIa-034a]
[ask] # query: argmin of pIC50 over a and b Which one? Tell me its label.
[reply] b

P: O=C(O)Cc1ccccc1NC(=O)c1cc(O)c(C(=O)O)cc1O [Ia-034a]
Q: O=C(O)c1cc(O)cc(CS(=O)(=O)Cc2cc(O)cc(C(=O)O)c2O)c1O [IVc-059a]
[ask] # query: argmin of pIC50 over P and Q Which one? Tell me its label.
[reply] P

====

studyTarget: FGF-1 (Homo sapiens)
Construct: purchased Peprotech 100-17A
Sequence (P05230 whole entry): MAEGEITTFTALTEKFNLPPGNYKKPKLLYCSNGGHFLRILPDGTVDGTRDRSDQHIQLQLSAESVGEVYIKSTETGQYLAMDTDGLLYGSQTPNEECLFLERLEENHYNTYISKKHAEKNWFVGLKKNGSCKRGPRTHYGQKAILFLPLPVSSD
experiment: FGF-1 induced sprouting of HUVEC, spheroid-based cellular angiogenesis assay
Assay type: cell-based
experimentalSetup: FGF-1 25 ng/mL preincubated with compound, 24 h
Source text: Aim of this in vitro method is to assess compounds effects on FGF-2, FGF-1, or VEGF-A induced sprouting of human umbilical vein endothelial cells (HUVEC) in the spheroid-based cellular angiogenesis assay. […] IC50 values determined for the tested compounds are expressed in microM [μM] and the values for the inhibition of FGF-1, FGF2 and VEGF-A induced growth (sprouting) are listed after each compound in the examples after chemical characterization. […]
pIC50: −log10 of the molar value.
valueKind: pIC50

Consider the reported pIC50 for these molecules:
molecule: O=C(O)c1cc(O)cc(CS(=O)(=O)Cc2cc(O)cc(C(=O)O)c2O)c1O [IVc-059a]
pIC50: 5.17

molecule: CCOC(=O)c1cc(O)c(C(=O)Nc2ccccc2C(=O)OCC)cc1O [Ia-001a-E2]
pIC50: 5.04

molecule: O=C(O)c1cc(NC(=O)c2cc(O)c(C(=O)O)cc2O)cc(NC(=O)c2cc(O)c(C(=O)O)cc2O)c1 [Ib-010a]
pIC50: 4.85

molecule: O=C(Nc1ccc(O)cc1C(=O)O)c1cc(O)c(C(=O)Nc2ccc(O)cc2C(=O)O)cc1O [Ic-009a]
pIC50: 4.49

molecule: CCOC(=O)c1cc(OC(C)=O)c(C(=O)Nc2ccccc2-c2nnn[nH]2)cc1OC(C)=O [Ia-001a-Tz-E1-A2]
pIC50: 4.22

P: COC(=O)c1cc(O)cc(CS(=O)(=O)Cc2cc(O)cc(C(=O)OC)c2O)c1O [IVc-059a-E2]
Q: CCOC(=O)c1cc(NC(=O)c2cc(O)c(C(=O)OCC)cc2O)cc(NC(=O)c2cc(O)c(C(=O)OCC)cc2O)c1 [Ib-010a-E3]
[ask] Short answer wanted: higher pIC50, P or Q ? Which one? Tell me its label.
[reply] Q
(Q: 4.59, P: 4.11)
